test system: normal WI38 cells; assay: MTT assay against normal WI38 cells (safety profile); assay type: cell-based; conditions: vs reference drug staurosporine
Measured Metric: IC50 against WI38 cells relative to IC50 of staurosporine

Molecule	Readout Value
CCOC(=O)C1=C(C(F)(F)F)NC2=C(C(=O)CC(C)(C)C2)C1c1ccc(S(=O)(=O)c2ccccc2)cc1 (stereo not shown)	about 3 fold
Cc1ccc(S(=O)(=O)c2ccc(C3C(C(=O)c4ccccc4)=C(N)NC4=C3C(=O)CC(C)(C)C4)cc2)cc1 (stereo not shown)	about 3 fold
Cc1ccc(C(=O)C2=C(N)NC3=C(C(=O)CC(C)(C)C3)C2c2ccc(S(=O)(=O)c3ccccc3)cc2)cc1 (stereo not shown)	approximately equal
Cc1ccc(C(=O)C2=C(N)NC3=C(C(=O)CC(C)(C)C3)C2c2ccc(S(=O)(=O)c3ccc(C)cc3)cc2)cc1 (stereo not shown)	approximately equal

---

Target: HER-2 (Homo sapiens (Human), UniProt P04626)
Sequence (P04626 23-1255): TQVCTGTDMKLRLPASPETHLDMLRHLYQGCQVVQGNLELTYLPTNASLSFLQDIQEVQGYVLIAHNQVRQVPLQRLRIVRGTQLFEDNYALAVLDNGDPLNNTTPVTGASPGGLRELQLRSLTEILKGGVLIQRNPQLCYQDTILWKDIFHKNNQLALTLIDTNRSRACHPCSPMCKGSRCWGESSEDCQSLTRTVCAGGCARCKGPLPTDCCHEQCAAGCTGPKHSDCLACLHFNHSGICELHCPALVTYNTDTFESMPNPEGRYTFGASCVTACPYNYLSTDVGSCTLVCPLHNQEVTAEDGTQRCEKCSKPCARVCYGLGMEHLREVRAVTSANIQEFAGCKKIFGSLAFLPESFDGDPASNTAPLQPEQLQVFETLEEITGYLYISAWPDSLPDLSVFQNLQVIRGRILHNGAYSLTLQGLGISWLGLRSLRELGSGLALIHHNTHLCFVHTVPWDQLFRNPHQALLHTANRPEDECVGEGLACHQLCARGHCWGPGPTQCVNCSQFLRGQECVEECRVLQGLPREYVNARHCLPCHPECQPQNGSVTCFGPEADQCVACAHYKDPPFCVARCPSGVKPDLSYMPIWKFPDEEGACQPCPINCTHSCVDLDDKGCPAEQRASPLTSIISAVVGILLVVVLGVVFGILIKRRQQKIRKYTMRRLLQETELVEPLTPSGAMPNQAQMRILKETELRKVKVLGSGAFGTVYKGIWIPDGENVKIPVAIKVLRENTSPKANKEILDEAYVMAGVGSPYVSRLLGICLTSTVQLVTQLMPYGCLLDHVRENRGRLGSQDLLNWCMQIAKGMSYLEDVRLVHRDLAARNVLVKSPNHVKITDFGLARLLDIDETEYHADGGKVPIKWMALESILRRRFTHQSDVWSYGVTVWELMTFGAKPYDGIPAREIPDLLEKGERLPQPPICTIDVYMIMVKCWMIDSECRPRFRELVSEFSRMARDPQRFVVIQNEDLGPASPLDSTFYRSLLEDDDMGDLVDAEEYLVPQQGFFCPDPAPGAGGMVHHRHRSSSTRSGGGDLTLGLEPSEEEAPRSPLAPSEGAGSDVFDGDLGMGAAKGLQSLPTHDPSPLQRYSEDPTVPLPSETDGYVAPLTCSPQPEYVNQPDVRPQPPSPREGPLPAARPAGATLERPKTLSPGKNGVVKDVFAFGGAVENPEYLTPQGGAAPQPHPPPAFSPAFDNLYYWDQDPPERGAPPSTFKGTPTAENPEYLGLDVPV
Assay: In vitro kinase inhibition assay, HER2 (ADP-Glo Kinase Assay)
Assay type: biochemical
Conditions: unit mM; read-out: HER-2 IC50 as restated in text
Source text: RTK's play essential roles in regulation of cell proliferation, differentiation, survival and apoptosis. Aberrant expression of RTK results in cell growth dysfunction leading to tumor takeover, angiogenesis, and metastasis. They also produce their actions in a synergistic pattern in regulating tumor response to different anticancer RTK inhibitor drug therapies. […] The procedure of the used kits was done according to the manufacturer's instructions.
Measured Metric: IC50 (mM)
Quick reminder: number only, in mM, skip the unit.

Task item: What value of measured IC50 is listed for Cc1ccc(S(=O)(=O)c2ccc(C3C(C(=O)c4ccccc4)=C(N)NC4=C3C(=O)CC(C)(C)C4)cc2)cc1 (stereo not shown) ?
Reply: 0.00017

---

system: normal WI38 cells; test: MTT assay against normal WI38 cells (safety profile); format: cell-based; conditions: WI38 vs MCF-7
Measured Metric: IC50 against WI38 cells, fold higher than IC50 against MCF-7 cancer cells (fold)
Quick reminder: number only, in fold, skip the unit.

Molecule	Readout Value
CCOC(=O)C1=C(C(F)(F)F)NC2=C(C(=O)CC(C)(C)C2)C1c1ccc(S(=O)(=O)c2ccccc2)cc1 (stereo not shown) [Compound 4b]	24
Cc1ccc(C(=O)C2=C(N)NC3=C(C(=O)CC(C)(C)C3)C2c2ccc(S(=O)(=O)c3ccc(C)cc3)cc2)cc1 (stereo not shown) [Compound 4k]	4
Cc1ccc(S(=O)(=O)c2ccc(C3C(C(=O)c4ccccc4)=C(N)NC4=C3C(=O)CC(C)(C)C4)cc2)cc1 (stereo not shown) [Compound 4j]	20

Please look at the following molecule next.
Task item: What value of measured IC50 against WI38 cells, fold higher than IC50 against MCF-7 cancer cells is listed for Cc1ccc(C(=O)C2=C(N)NC3=C(C(=O)CC(C)(C)C3)C2c2ccc(S(=O)(=O)c3ccccc3)cc2)cc1 (stereo not shown) [Compound 4e] ?
Reply: 4

---

target: VEGFR-2 (Homo sapiens (Human), UniProt P35968); test: In vitro kinase inhibition assay, VEGFR2 (KDR) Kinase Assay Kit; format: biochemical; conditions: Table 4
Sequence (P35968 20-1356): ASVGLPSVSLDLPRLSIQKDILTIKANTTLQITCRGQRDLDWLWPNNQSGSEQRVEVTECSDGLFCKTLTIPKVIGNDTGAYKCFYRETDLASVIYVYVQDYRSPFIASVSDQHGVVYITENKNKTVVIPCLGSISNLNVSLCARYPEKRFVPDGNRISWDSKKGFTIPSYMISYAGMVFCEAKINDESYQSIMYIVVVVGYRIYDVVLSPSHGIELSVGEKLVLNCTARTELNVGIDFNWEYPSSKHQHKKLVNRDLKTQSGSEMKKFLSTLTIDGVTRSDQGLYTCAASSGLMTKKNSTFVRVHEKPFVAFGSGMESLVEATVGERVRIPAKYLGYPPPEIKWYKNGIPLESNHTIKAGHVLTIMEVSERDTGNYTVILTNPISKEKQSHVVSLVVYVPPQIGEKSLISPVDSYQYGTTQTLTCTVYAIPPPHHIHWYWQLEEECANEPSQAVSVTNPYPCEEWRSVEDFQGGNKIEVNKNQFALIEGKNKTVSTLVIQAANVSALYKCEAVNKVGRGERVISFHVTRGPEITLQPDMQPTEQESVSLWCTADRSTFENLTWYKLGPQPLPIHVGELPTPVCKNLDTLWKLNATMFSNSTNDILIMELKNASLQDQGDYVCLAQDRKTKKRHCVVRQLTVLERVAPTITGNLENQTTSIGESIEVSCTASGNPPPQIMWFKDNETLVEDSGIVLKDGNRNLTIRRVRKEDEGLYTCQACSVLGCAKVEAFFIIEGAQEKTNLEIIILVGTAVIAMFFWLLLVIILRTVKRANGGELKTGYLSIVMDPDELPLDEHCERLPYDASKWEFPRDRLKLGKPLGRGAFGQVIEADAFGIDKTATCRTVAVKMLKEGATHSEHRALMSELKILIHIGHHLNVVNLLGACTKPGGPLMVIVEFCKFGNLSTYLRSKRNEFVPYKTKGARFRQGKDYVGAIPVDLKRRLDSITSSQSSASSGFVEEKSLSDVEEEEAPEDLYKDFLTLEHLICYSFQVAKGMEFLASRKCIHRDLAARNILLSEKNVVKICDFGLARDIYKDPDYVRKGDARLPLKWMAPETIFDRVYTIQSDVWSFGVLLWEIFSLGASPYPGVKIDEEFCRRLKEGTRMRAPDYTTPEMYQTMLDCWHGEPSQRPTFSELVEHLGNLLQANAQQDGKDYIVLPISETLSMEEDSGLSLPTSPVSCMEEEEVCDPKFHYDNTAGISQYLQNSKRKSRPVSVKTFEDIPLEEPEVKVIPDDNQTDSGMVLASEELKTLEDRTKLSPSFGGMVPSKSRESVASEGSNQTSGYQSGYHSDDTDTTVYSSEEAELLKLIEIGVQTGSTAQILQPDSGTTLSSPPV
Measured Metric: IC50
Dear colleague, please send the value followed by its unit.

Compound	Target	Readout Value
CCOC(=O)C1=C(C(F)(F)F)NC2=C(C(=O)CC(C)(C)C2)C1c1ccc(S(=O)(=O)c2ccccc2)cc1 (centres unmarked)	VEGFR-2 (Homo sapiens (Human), UniProt P35968)	1.97 nM

Please look at the following compound next.
Task item: What value of measured IC50 is listed for Cc1ccc(S(=O)(=O)c2ccc(C3C(C(=O)c4ccccc4)=C(N)NC4=C3C(=O)CC(C)(C)C4)cc2)cc1 (centres unmarked) ?
Reply: 0.57 nM

---

target: EGFR (Homo sapiens (Human), UniProt P00533); assay: In vitro kinase inhibition assay, EGFR (Abcam Human In cell ELISA Kit); format: biochemical; details: EGFR IC50, Table 4; heading: EGFR IC50
Sequence (P00533 25-1210): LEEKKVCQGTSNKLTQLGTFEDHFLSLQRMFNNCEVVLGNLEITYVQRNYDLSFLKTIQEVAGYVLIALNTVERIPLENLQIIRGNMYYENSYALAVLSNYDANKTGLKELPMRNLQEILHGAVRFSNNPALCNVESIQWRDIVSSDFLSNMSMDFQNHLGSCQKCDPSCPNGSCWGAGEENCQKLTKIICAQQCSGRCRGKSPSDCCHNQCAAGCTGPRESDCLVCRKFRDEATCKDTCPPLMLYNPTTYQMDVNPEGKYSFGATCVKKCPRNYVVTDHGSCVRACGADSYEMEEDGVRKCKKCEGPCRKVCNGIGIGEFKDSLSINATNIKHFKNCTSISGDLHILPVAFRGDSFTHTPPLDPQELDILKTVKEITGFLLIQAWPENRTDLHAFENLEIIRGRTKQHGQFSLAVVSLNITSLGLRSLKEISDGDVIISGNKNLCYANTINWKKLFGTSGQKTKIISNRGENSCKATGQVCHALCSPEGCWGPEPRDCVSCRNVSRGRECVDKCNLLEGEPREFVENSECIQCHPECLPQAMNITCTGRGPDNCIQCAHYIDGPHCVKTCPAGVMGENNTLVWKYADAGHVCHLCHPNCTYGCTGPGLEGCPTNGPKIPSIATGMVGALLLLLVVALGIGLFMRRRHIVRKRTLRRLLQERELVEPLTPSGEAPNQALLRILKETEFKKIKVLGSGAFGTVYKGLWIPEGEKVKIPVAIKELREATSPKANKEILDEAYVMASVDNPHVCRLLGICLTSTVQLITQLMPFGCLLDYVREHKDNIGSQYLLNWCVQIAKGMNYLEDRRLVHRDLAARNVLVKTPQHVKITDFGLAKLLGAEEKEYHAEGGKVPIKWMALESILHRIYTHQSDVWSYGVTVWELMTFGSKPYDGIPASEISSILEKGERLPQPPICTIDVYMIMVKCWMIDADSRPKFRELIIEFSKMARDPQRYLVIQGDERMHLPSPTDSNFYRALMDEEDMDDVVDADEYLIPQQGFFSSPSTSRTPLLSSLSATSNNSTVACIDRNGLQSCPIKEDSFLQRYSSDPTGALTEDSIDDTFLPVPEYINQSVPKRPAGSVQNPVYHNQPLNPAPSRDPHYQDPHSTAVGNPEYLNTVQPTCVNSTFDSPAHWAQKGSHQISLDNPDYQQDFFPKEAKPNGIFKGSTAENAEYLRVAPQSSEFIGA
Measured Metric: pIC50
The meaning of pIC50 here: minus log10 of the concentration in molar units.

Task item: What value of measured pIC50 is listed for Cc1ccc(S(=O)(=O)c2ccc(C3C(C(=O)c4ccccc4)=C(N)NC4=C3C(=O)CC(C)(C)C4)cc2)cc1 (stereo not shown) ?
Reply: 7.15

---

Target: PDGFR-β (Homo sapiens (Human), UniProt P09619)
Sequence (P09619 33-1106, species assumed): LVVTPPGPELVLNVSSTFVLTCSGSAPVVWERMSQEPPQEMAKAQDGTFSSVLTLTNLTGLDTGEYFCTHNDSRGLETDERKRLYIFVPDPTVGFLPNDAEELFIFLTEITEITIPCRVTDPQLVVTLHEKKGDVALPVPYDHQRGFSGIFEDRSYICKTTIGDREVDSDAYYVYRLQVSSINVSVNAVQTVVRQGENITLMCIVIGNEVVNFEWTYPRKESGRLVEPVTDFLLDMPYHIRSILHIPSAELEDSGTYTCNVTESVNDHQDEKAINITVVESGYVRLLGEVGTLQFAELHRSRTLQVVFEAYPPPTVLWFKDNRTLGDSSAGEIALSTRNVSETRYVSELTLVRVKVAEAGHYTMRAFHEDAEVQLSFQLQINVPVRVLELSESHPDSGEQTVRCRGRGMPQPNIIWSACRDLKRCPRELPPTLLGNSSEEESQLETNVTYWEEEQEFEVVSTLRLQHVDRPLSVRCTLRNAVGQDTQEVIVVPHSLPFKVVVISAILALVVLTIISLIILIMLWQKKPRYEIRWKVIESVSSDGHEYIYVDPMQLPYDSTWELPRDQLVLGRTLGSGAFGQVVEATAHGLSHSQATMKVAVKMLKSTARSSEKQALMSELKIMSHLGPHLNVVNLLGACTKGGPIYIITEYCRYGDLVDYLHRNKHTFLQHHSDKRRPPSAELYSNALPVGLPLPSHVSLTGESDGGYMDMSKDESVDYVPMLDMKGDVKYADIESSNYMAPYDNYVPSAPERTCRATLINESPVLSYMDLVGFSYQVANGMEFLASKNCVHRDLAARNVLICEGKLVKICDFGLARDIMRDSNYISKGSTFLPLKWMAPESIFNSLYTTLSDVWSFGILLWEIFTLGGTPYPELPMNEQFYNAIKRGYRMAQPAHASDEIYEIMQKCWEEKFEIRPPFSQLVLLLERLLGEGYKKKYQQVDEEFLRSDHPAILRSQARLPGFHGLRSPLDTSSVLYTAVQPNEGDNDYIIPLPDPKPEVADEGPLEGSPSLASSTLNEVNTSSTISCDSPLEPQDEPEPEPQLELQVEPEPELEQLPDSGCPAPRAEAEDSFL
Test: In vitro kinase inhibition assay, PDGFR-β
Format: biochemical
Settings: Table 4
Excerpt: RTK's play essential roles in regulation of cell proliferation, differentiation, survival and apoptosis. Aberrant expression of RTK results in cell growth dysfunction leading to tumor takeover, angiogenesis, and metastasis. They also produce their actions in a synergistic pattern in regulating tumor response to different anticancer RTK inhibitor drug therapies. […] The procedure of the used kits was done according to the manufacturer's instructions.
Measured Metric: IC50 (nM)
Quick reminder: number only, in nM, skip the unit.

Molecule	Measured Metric	U	Readout Value
Cc1ccc(S(=O)(=O)c2ccc(C3C(C(=O)c4ccccc4)=C(N)NC4=C3C(=O)CC(C)(C)C4)cc2)cc1 (centres unmarked)	IC50	nM	0.133

Task item: What value of measured IC50 is listed for CCOC(=O)C1=C(C(F)(F)F)NC2=C(C(=O)CC(C)(C)C2)C1c1ccc(S(=O)(=O)c2ccccc2)cc1 (centres unmarked) ?
Reply: 0.394
